System: proteins that co-immunoprecipitated with DUX4-CTD constructs expressed in MB135 myoblasts
measurement notes: LC-MS of proteins co-immunoprecipitated with DUX4-CTD (Table 1) and western validation
Assay type: binding, human
Design: key: peptide-spectrum matches (PSMs) per protein
condition details: LC-MS counts of the listed protein co-immunoprecipitated with DUX4-CTD bait longCTD; experiment 4, Dox + IFNG

[
  {
    "molecule": "Q00325 (protein, UniProt Q00325 1-362, looked up, full-length) MFSSVAHLARANPFNTPHLQLVHDGLGDLRSSSPGPTGQPRRPRNLAAAAVEEQYSCDYGSGRFFILCGLGGIISCGTTHTALVPLDLVKCRMQVDPQKYKGIFNGFSVTLKEDGVRGLAKGWAPTFLGYSMQGLCKFGFYEVFKVLYSNMLGEENTYLWRTSLYLAASASAEFFADIALAPMEAAKVRIQTQPGYANTLRDAAPKMYKEEGLKAFYKGVAPLWMRQIPYTMMKFACFERTVEALYKFVVPKPRSECSKPEQLVVTFVAGYIAGVFCAIVSHPADSVVSVLNKEKGSSASLVLKRLGFKGVWKGLFARIIMIGTLTALQWFIYDSVKVYFRLPRPPPPEMPESLKKKLGLTQ",
    "4. longCTD + Dox + IFNG": 2
  },
  {
    "molecule": "P05141 (protein, UniProt P05141 1-298, looked up, full-length) MTDAAVSFAKDFLAGGVAAAISKTAVAPIERVKLLLQVQHASKQITADKQYKGIIDCVVRIPKEQGVLSFWRGNLANVIRYFPTQALNFAFKDKYKQIFLGGVDKRTQFWLYFAGNLASGGAAGATSLCFVYPLDFARTRLAADVGKAGAEREFRGLGDCLVKIYKSDGIKGLYQGFNVSVQGIIIYRAAYFGIYDTAKGMLPDPKNTHIVISWMIAQTVTAVAGLTSYPFDTVRRRMMMQSGRKGTDIMYTGTLDCWRKIARDEGGKAFFKGAWSNVLRGMGGAFVLVLYDEIKKYT",
    "4. longCTD + Dox + IFNG": 6
  }
]
